Values compiled from paper PMC10397247.

Overview of recorded interaction score for various binders
Biological target: T1, N6-AA
T1 chain: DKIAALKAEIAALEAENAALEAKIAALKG
Assay: two-hybrid library CCmax;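 note: natural log of median RNA to DNA barcode read ratio; higher means stronger binding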
Conditions: mean of both orientations
attribute_measured: interaction score

binder	result
DEIAALEAEIAALEAKIAALKAKNAALKG [4H48-AA]	1.34
DEIAALEAKNAALKAEIAALEAKIAALKG [4H454-AA]	1.89
DEIAALEAKIAALKAKNAALKAEIAALEG [N5-AA]	2.28
DKIAALKAENAALEAKIAALKAEIAALEG [4H2729-AA]	1.56
DKIAALKAKIAALKAEIAALEAENAALEG [4H2883-AA]	1.03
